experiment: NCI Yeast Anticancer Drug Screen. Data for the mlh1 rad18 strain (AID 175); conditions: S. cerevisiae mlh1 rad18 strain growth inhibition; at 50.0 µM; active compounds read high
Compounds without any hit were thinned out: in the full panel of roughly 79,000, 15% have a hit.
reported_endpoint: growth inhibition (%)
Only the number, expressed in %, is required.

Prompt: Look up and report measured growth inhibition for this entry: O=C1CCC2(c3ccc(Cl)cc3)SCCN12 (configuration not stated)
Response: -0.15

Prompt: Look up and report measured growth inhibition for this entry: c1ccc2c(c1)NC1(CCCCC1)S2
Response: 11.9

Prompt: Look up and report measured growth inhibition for this entry: C1CNCCNCCN1
Response: -4.3

Prompt: Look up and report measured growth inhibition for this entry: COc1ccc(C(SCC(N)C(=O)O)(c2ccccc2)c2ccccc2)cc1 (configuration not stated)
Response: 54.6

Prompt: Look up and report measured growth inhibition for this entry: C/C=C(\CC)C(C#N)(CC)C(=O)OCC (configuration not stated)
Response: -24.8

Prompt: Look up and report measured growth inhibition for this entry: Nc1ccccc1Br
Response: 20.6

Prompt: Look up and report measured growth inhibition for this entry: C#CCOCCCC(=O)O
Response: 11.7

Prompt: Look up and report measured growth inhibition for this entry: O=C1NC(O)c2cccc([N+](=O)[O-])c2O1 (configuration not stated)
Response: 30.8

Prompt: Look up and report measured growth inhibition for this entry: CCC(=O)C(CC)c1ccc(OC)cc1OC (configuration not stated)
Response: 15.6

Prompt: Look up and report measured growth inhibition for this entry: COc1ccc(-c2cc(-c3ccccc3)n[nH]2)cc1
Response: 33.4

Prompt: Look up and report measured growth inhibition for this entry: COc1cc2c(cc1OC)C1CC(CC(N)=O)(C(N)=O)CCN1CC2 (configuration not stated)
Response: 17.5

Prompt: Look up and report measured growth inhibition for this entry: CC1(C2=CCCCC2)CCC(=O)NC1=O (configuration not stated)
Response: 28.8

// provenance: PubChem BioAssay (NCI)
